- system_under_test: Human TRPV3 (Homo sapiens)
- Construct: expressed in transfected cells; host or cells: CHO cells
- Sequence (Q8NET8 whole entry): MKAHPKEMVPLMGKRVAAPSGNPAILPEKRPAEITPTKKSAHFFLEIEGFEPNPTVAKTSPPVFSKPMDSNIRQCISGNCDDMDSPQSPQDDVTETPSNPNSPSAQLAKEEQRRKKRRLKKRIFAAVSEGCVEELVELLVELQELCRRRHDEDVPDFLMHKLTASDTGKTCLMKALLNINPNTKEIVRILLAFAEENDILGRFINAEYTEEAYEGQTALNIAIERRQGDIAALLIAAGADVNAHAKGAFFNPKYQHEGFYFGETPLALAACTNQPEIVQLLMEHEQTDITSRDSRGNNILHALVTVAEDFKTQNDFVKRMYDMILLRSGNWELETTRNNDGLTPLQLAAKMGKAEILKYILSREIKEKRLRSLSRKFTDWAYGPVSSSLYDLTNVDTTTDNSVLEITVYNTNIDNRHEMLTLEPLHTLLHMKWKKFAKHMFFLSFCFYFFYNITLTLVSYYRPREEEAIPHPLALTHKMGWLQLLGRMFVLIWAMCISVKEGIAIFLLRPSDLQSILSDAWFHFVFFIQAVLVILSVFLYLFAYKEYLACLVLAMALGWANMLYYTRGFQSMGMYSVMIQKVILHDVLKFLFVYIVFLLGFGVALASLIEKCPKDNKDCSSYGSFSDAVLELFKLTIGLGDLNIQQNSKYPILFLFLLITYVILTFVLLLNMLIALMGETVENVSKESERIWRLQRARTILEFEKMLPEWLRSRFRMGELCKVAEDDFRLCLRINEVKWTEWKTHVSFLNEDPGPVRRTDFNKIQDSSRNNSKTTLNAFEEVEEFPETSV
- test_summary: 45Calcium uptake assay: inhibition of 2-APB induced cellular uptake of radioactive calcium in human TRPV3 expressing CHO cells
- Assay type: cell-based
- study_conditions: 10.0 μM test compound, 2-APB 500 μM, read-out: Percentage inhibition at 10.0 μM
Would you kindly list inhibition at 10 µM for each of these compounds?
Give just the number in %; leave the unit off.

Bench note, Human TRPV3 (Homo sapiens): entry COc1cccc(/C=C/c2oc3ccccc3c(=O)c2-c2ccc(C#N)cc2)c1OC1CCCC1 [Example 5] , its inhibition at 10 µM = 90.3

With Human TRPV3 (Homo sapiens) as the test system, COc1cccc(/C=C/c2oc3ccccc3c(=O)c2-c2ccc(C#N)cc2)c1OCC(C)(C)C [Example 7] showed inhibition at 10 µM of 93.2

With Human TRPV3 (Homo sapiens) as the test system, COc1cccc(/C=C/c2oc3c(F)cc(F)cc3c(=O)c2-c2ccc(C#N)cc2)c1OCC1CC1 [Example 22] showed inhibition at 10 µM of 73

Per the reported Human TRPV3 (Homo sapiens) data, COc1cccc(/C=C/c2oc3ccc(F)cc3c(=O)c2-c2ccc(C#N)cc2)c1OCC1CC1 [Example 15] has inhibition at 10 µM of 94.1
